// values below are reported Kd
target: E3 ubiquitin-protein ligase CBL-B (Homo sapiens, UniProt Q13191); assay: Binding affinity towards N-terminal biotinylated Avi-tagged human CBL-B (36 to 427 residues) measured by surface plasmon resonance assay
Sequence (Q13191 whole entry, the tested form may be a part): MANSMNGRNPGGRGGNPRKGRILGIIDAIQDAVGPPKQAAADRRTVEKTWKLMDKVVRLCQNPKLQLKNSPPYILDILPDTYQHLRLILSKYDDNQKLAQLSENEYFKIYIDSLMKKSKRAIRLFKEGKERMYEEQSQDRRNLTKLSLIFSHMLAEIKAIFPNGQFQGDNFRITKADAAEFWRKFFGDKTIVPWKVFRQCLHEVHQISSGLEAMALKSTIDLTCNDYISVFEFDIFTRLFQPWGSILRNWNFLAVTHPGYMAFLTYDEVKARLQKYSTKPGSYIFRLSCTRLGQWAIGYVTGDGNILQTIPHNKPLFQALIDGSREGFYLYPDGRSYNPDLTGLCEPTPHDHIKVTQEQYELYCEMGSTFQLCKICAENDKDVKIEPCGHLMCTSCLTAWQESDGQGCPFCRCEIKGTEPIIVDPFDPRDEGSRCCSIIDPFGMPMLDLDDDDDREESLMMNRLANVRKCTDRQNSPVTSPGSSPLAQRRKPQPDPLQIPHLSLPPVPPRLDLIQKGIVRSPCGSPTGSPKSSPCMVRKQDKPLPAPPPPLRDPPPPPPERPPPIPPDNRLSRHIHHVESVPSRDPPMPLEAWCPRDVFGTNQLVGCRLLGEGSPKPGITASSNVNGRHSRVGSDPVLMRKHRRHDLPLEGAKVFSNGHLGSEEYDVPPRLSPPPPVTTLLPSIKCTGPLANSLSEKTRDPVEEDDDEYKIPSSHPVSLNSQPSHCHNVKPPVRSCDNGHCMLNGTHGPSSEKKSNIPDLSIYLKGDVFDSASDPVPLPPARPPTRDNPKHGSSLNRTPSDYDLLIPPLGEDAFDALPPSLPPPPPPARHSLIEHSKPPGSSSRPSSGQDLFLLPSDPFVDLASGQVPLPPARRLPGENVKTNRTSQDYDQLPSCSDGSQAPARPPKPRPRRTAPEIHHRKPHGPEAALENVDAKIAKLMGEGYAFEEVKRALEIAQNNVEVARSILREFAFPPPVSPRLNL

Field: example entries. Status: answers known.
# COMPOUND, Kd
data = [
    ("Cc1n[nH]c(C)c1-c1cc2c(c(C(F)(F)F)c1)CN(c1cccc(C3(Cc4nncn4C)COC3)c1)C2=O", "< 100 nM"),
    ("C[C@H](Cc1nncn1C)c1cccc(NC(=O)c2cc(C3CC3)cc(C(F)(F)F)n2)c1", "< 100 nM"),
    ("C[C@H](Cc1nncn1C)c1cccc(N2Cc3c(cc(CN4C[C@@H](O)[C@H](F)C4)cc3C(F)(F)F)C2=O)c1", "< 100 nM"),
    ("COc1c(C(=O)Nc2cccc([C@H](C)Sc3nncn3C)c2)cccc1C(F)(F)F", "> 10000 nM"),
]

Q: Give the value of Kd reported for the following: `C[C@H](Cc1nncn1C)c1cccc(N2Cc3c(cc(CN4CC[C@H](O)C4)cc3C(F)(F)F)C2=O)c1`
A: < 100 nM

Q: Give the value of Kd reported for the following: `Cc1cc(C(=O)Nc2cccc([C@H](C)Cc3nncn3C)c2)nc(C2CC2)n1`
A: < 100 nM

Q: Give the value of Kd reported for the following: CC(O)C1CN(C(=O)c2ccnc(C(=O)Nc3cccc([C@H](C)Cc4nncn4C)c3)c2)C1 (some centres undefined)
A: < 100 nM

Q: Give the value of Kd reported for the following: `C[C@@H](c1cc2c(c(C(F)(F)F)c1)CN(c1cccc(C3(Cc4nncn4C)COC3)c1)C2=O)N1CCC(C)(F)CC1`
A: < 100 nM

---

test: Induction of anti-CD3 antibodies-stimulated human T cell activation at 1 uM assessed fold increase in CD25 expression measured by ELISA assay; type: functional, T cell line; note: reference of the scale not given here
READOUT: fold change (FC)

Field: example entries. Status: answers known.
# COMPOUND, fold change (FC)
data = [
    ("Cc1cc(C(=O)Nc2cccc(-c3c(-c4nncn4C)cnn3C)c2)nc(C2CC2)n1", 0.601),
    ("C[C@H](Cc1nncn1C)c1cccc(N2Cc3c(cc([C@@H](C)N4CC[C@H](F)C4)cc3C(F)(F)F)C2=O)c1", ">=1.001"),
    ("Cn1cnnc1CC1(c2cccc(NC(=O)c3cc(CN4CCC4)nc(C4CC4)n3)c2)COC1", 0.801),
    ("C[C@H](Sc1nncn1C)c1cccc(N2Cc3c(ccnc3Cl)C2=O)c1", "<=0.6"),
    ("Cc1cnn2c(C(=O)Nc3cccc(C4(Cc5nncn5C)COC4)c3)cc(C(F)(F)F)nc12", 0.601),
]

Q: Give the value of fold change (FC) reported for the following: `C[C@H](Sc1nnc[nH]1)c1cccc(NC(=O)c2cc3ccccc3cn2)c1`
A: <=0.6

Q: Give the value of fold change (FC) reported for the following: `C[C@H](Sc1nncn1C)c1cccc(NC(=O)c2cc(C(C)(C)O)c(Cl)cn2)c1`
A: <=0.6

Q: Give the value of fold change (FC) reported for the following: `COc1cc(C(=O)Nc2cccc([C@H](C)Sc3nncn3C)c2)nc(C(F)(F)F)c1`
A: 0.801

---

experiment: Induction of anti-CD3/CD28 antibodies-stimulated human T cell activation at 10 uM assessed fold increase in IFN-gamma secretion measured by ELISA assay; type: functional, T cell line
READOUT: fold change (FC)

Field: example entries. Status: answers known.
# COMPOUND, fold change (FC)
measured = [
    ("Cn1cnnc1[C@@H]1C[C@@H]1c1cccc(N2Cc3c(cccc3C(F)(F)F)C2=O)c1", 2.01),
    ("Cn1cnnc1C(F)(F)[C@](C)(F)c1cccc(N2Cc3c(cc(CN4CC[C@@H](C#N)C4)cc3C(F)(F)F)C2=O)c1", ">4"),
    ("C[C@H](Cc1nncn1C)c1cccc(N2Cc3c(cccc3C(F)(F)F)C2=O)c1.Cl", ">4"),
    ("COC1CN(Cc2cc3c(c(C(F)(F)F)c2)CN(c2cccc([C@@](C)(F)C(F)(F)c4nncn4C)c2)C3=O)C1", 2.01),
]

Q: Give the value of fold change (FC) reported for the following: Cn1cnnc1C(F)(F)C(C)(F)c1cccc(N2Cc3c(cc(CN4CC[C@@H](F)C4)cc3C(F)(F)F)C2=O)c1 (single isomer, unassigned)
A: >4

Q: Give the value of fold change (FC) reported for the following: `C[C@H](Cc1nncn1C)c1cccc(NC(=O)c2n[nH]c3c2CCC3)c1`
A: 2.01

Q: Give the value of fold change (FC) reported for the following: `Cn1cnnc1[C@@H]1C[C@@H]1c1cccc(N2Cc3c(ccnc3C(F)(F)F)C2=O)c1`
A: <=2

Q: Give the value of fold change (FC) reported for the following: `Cn1cnnc1CC1(c2cccc(NC(=O)c3nc4c(C(F)(F)F)cccc4[nH]3)c2)COC1`
A: 2.01

Q: Give the value of fold change (FC) reported for the following: `C[C@H](Cc1nncn1C)c1cccc(N2Cc3c(cc(CN4CC(O)C4)cc3C(F)(F)F)C2=O)c1`
A: >4

Q: Give the value of fold change (FC) reported for the following: `Cc1cc2c(c(C3CC3)n1)CN(c1cccc([C@H](C)Cc3nncn3C)c1)C2=O`
A: <=2

Q: Give the value of fold change (FC) reported for the following: `Cc1cc(C(=O)Nc2cccc([C@H](C)Cc3nncn3C)c2)nc(C2CC2)n1`
A: >4

Q: Give the value of fold change (FC) reported for the following: `C[C@H](Cc1nncn1C)c1cccc(N2Cc3c(cc(CN4CC[C@](C)(O)C4)cc3C(F)(F)F)C2=O)c1`
A: >4
